system name: T1, Ab0787
T1 construct: Fab, His-Tag, Avi-Tag; Ab0785 + HC I50M; also called LS2A R3M2; Ab787
experimental protocol: BLI 1-pt +indinavir
attribute measured: Kd (nM)
Hi! Could you send only the number? It should be in nM, unit omitted.

Recorded result, Ab0944 (antibody, V domains shown, also called LS2B R6M10) VH: EVQLVESGGGLVQPGGSLRLSCAASGFDFSSYSIHWVRQAPGKGLEWVASISPYYGSTYYADSVKGRFTISADTSKNTAYLQMNSLRAEDTAVYYCARYYEWYKYALYLGSLGFDYWGQGTLVTVSS VL: DIQMTQSPSSLSASVGDRVTITCRASQSVSSAVAWYQQKPGKAPKLLIYSASSLYSGVPSRFSGSRSGTDFTLTISSLQPEDFATYYCQQGGYSLITFGQGTKVEIK , Kd: 100

// data source = patent US20240190987A1
